Target: T1, human IL-17A/F (human, UniProt Q16552 24-155; Q96PD4 31-163)
T1 construct: Heterodimer of IL-17A and IL-17F, purified recombinant; also called HuIL-17A/F; Hu IL-17A/F
T1 sequence (Q16552 24-155 limits assumed, chain 1 of 2): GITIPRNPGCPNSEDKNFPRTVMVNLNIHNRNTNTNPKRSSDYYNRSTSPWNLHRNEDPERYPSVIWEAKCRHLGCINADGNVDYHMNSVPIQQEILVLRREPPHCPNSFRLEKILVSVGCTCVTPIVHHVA
T1 sequence (Q96PD4 31-163 limits assumed, chain 2 of 2): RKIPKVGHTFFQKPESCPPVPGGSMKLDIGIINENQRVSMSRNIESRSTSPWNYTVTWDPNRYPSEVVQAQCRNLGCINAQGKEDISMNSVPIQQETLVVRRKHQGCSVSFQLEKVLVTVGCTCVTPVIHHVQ
Experiment: SPR Biacore, captured binder
Measured kon by item

binder | kon
IL17-G9-M1 (antibody, V domains shown) VH: EVQLLESGGGVVQPGRSLRLSCAASGFIFSNYGMHWVRQAPGKGLEWVAVISYDGGYKYYADSVKGRFTISRDNSKNTLYLEMNSLRPEDTAVYYCAKLSLSGDYYYSYGFDGWGQGTTVTVSS VL: QSVLTQPPSASGTPGQTVSISCSGSKSNIGSHYVHWYQQVPGAAPKLLMYDFGQRPSGVPDRFSGSQSGTSASLAISGLQSEDEADYYCGTWDDWLGGYVFGTGTKVTVLG | 162000 M⁻¹ s⁻¹
IL17-G9-2 (antibody, V domains shown) VH: EVQLLESGGGVVQPGRSLRLSCAASGFIFRNYGMHWVRQAPGKGLEWVAVISYDGSNKYYADSVKGRFTISRDNSKNTLYLEMNSLRPEDTAVYYCAKVGASGDYYYSYGLDVWGQGTTVTVSS VL: QSVLTQPPSASGTPGQTVSISCSGSNSNIGRHPVDWYQQVPGAAPKLLIYYDDQRPSGVPDRFSGSQSGTSASLAISGLQSEDEADYYCATWDDSLGGYVFGSGTKVTVLG | 198000 M⁻¹ s⁻¹
IL17-B6-15 (antibody, V domains shown) VH: EVQLVQSGAEVKKPGESLKISCKASGGSFSGYGTSWVRQAPGQGLEWMGGITHFFGAVDYAQKFQGRVTITADESTTTAYMELSGLTSDDTAVYYCARDPNEFWNGYYATHDFDYWGQGTTVTVSS VL: EIVLTQSPDFQSVTPKEKVTITCRASQNIGAELHWYQQKPDQSPKLLIKYASHSISGVPSRFSGSGSGTDFTLTINGLEAEDAGTYYCHQTDRLPYSFGPGTKVDIK | 8.82e+06 M⁻¹ s⁻¹
IL17-G9-M2 (antibody, V domains shown, converted into IgG) VH: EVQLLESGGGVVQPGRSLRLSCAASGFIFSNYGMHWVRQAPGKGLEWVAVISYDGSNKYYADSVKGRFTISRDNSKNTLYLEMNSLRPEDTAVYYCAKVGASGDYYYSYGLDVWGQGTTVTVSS VL: QSVLTQPPSASGTPGQTVSISCSGHNSNIGYHYVHWYQQVPGAAPKLLIYGDGWRPSGVPDRFSGSQSGTSASLAISGLQSEDEADYYCGTWDDWLGGYVFGTGTKVTVLG | 137000 M⁻¹ s⁻¹
IL17-G9-4 (antibody, V domains shown, converted into IgG) VH: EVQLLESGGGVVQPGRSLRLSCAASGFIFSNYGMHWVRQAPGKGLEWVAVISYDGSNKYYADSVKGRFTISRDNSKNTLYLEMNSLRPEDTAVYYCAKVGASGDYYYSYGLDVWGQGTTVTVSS VL: QSVLTQPPSASGTPGQTVSISCSGRQSNIGRHYVDWYQQVPGAAPKLLMYYDSIRPSGVPDRFSGSQSGTSASLAISGLQSEDEADYYCATWDDSLGGYVFGSGTKVTVLG | 236000 M⁻¹ s⁻¹
IL17-B6-17 (antibody, V domains shown) VH: EVQLVQSGAEVKKPGSSVKVSCKASGGSFGGYGIGWVRQAPGQGLEWMGGITPFFGFADYAQKFQGRVTITADESTTTAYMELSGLTSDDTAVYYCARDPNEFWNGYYSTHDFDSWGQGTTVTVSS VL: EIVLTQSPDFQSVTPKEKVTITCRASQDIGSELHWYQQKPDQPPKLLIKYASHSTSGVPSRFSGSGSGTDFTLTINGLEAEDAGTYYCHQTDSLPYTFGPGTKVDIK | 7.23e+06 M⁻¹ s⁻¹

Data origin: patent US20140348834A1
